Reported koff values are given for each entry in this list.
measured on: T1, GST-human NOGO-A56 (human)
T1 construct: Expressed in E. coli BL21 from pGEX-6P1 and purified on glutathione-sepharose; the GST tag is part of the protein in the assays; also called GST-Nogo-A 5+6; GST Nogo-A 5 + 6
experiment description: SPR (Biacore) off-rate ranking on GST-human NOGO-A56 chip, one experiment
measurement type: koff

# binder, measurement type, obs value
rows = [
    ("H6L13 (H6FL L13FL) (antibody, human IgG1, kappa, V domains shown, Human IgG1 (L235A, G237A, EU Index) / kappa; also called H6L13 with VH CDR3 GQGY) VH: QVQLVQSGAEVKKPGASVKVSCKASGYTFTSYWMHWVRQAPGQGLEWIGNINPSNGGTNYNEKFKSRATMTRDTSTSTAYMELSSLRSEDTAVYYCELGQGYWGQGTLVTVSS VL: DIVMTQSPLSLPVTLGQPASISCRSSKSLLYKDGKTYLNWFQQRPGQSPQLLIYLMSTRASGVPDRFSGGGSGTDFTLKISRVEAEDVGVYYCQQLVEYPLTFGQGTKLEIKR", "koff", "0.0138 s⁻¹"),
    ("Hc(G95M)Lc (antibody, human IgG1, kappa, V domains shown, also called HcLc containing the G95M mutation of the CDR H3) VH: QVQLQQPGTELVKPGASVKLSCKASGYTFTSYWMHWVKQRPGQGLEWIGNINPSNGGTNYNEKFKSKATLTVDKSSSTAYMQLSSLTSEDSAVYYCELMQGYWGQGTLVTVSS VL: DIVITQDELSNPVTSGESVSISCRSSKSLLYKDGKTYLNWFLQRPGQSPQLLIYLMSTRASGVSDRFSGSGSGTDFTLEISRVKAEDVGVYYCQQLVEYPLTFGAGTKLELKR", "koff", "0.000614 s⁻¹"),
    ("HcLc (chimera of 2A10: murine 2A10 VH and VL with human IgG constant regions) (antibody, V domains shown, also called chimeric antibody; chimeric form of the parental antibody) VH: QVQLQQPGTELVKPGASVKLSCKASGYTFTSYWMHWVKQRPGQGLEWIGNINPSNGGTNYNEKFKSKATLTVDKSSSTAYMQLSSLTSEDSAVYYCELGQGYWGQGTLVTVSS VL: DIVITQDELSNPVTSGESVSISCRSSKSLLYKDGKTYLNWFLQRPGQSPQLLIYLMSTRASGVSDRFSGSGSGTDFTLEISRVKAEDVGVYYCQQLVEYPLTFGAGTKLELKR", "koff", "0.00266 s⁻¹"),
    ("H26L13 (antibody, human IgG1, kappa, V domains shown, H26 FL is H6 FL with G95M (Kabat); IgG1 (L235A, G237A) / kappa; CAMPATH-1H signal (1-19) left out; also called H6(G95M)L13; H6L13 with VH CDR3 MQGY) VH: QVQLVQSGAEVKKPGASVKVSCKASGYTFTSYWMHWVRQAPGQGLEWIGNINPSNGGTNYNEKFKSRATMTRDTSTSTAYMELSSLRSEDTAVYYCELMQGYWGQGTLVTVSS VL: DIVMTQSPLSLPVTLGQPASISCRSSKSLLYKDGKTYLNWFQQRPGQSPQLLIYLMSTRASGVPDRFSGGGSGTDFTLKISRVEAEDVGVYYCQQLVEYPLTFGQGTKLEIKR", "koff", "0.00431 s⁻¹"),
]

FYI, the data here is from patent US20130287781A1.
